# MEASURED_TARGET: human GPR17 receptor (Homo sapiens)
# ASSAY: Calcium mobilization functional assay (Fluo-8, FLIPR TETRA) in HEK-293 hGPR17 (Gα-q assay)
# ASSAY_CONDITIONS: antagonism of MDL29,951 (~EC80) induced Ca2+ signal; cell line (HEK-293 hGPR17 or HEK-293 Suchi5 hGPR17) not given
pIC50: −log10 of the molar value.
MEASUREMENT_KIND: pIC50

{"columns": ["MOLECULE", "MEASURED_TARGET", "pIC50"],
 "data": [
  ["Cc1cccnc1-c1cc(S(=O)(=O)Nc2cc(F)c(C(F)(F)F)cc2F)c[nH]1 [Cpd 155]", "human GPR17 receptor (Homo sapiens)", "> 6.30"],
  ["N#CCOc1cc(F)c(NS(=O)(=O)c2c[nH]cc2Cc2ccccc2)cc1F [Cpd 415]", "human GPR17 receptor (Homo sapiens)", "5.30 to 6.30"],
  ["N#Cc1cc(F)c(NS(=O)(=O)c2c[nH]c(-c3ccccc3OC(F)(F)F)c2)cc1F [Cpd 588]", "human GPR17 receptor (Homo sapiens)", "> 6.30"],
  ["N#Cc1ccc(NS(=O)(=O)c2c[nH]c(-c3csc(Cl)c3)c2)c(F)c1 [Cpd 562]", "human GPR17 receptor (Homo sapiens)", "> 6.30"],
  ["Cc1cccc(F)c1-c1cc(S(=O)(=O)Nc2cc(F)c(C(F)(F)F)cc2F)c[nH]1 [Cpd 321]", "human GPR17 receptor (Homo sapiens)", "5.30 to 6.30"]
]}

I need pIC50 for every entry listed below, if you could help.
1. O=S(=O)(Nc1cc(F)c(OC(F)F)cc1F)c1c[nH]c(-c2nccs2)c1 [Cpd 403]
2. O=S(=O)(Nc1cc(F)c(C(F)(F)F)cc1F)c1c[nH]c(-c2ccccn2)c1 [Cpd 124]
3. COc1cc(C(F)(F)F)ccc1NS(=O)(=O)c1c[nH]c(-c2ccccn2)c1 [Cpd 154]

## Output
> 6.30
> 6.30
5.30 to 6.30

For each listed entry, give its pIC50.
1. C#Cc1cnc(NS(=O)(=O)c2c[nH]c(-c3ccccc3)c2)c(F)c1 [Cpd 216]
2. O=S(=O)(Nc1cc(F)c(C(F)(F)F)cc1F)c1c[nH]c(-c2c(F)ccnc2F)c1 [Cpd 557]
3. COc1cc(C(F)(F)F)cnc1NS(=O)(=O)c1c[nH]c(-c2ccccn2)c1 [Cpd 198]

## Output
1: 5.30 to 6.30; 2: > 6.30; 3: 5.30 to 6.30

====

# MEASURED_TARGET: human GPR17 receptor (Homo sapiens)
# ASSAY: Calcium mobilization functional assay (Fluo-8, FLIPR TETRA) in HEK-293 hGPR17 (Gα-q assay)
# ASSAY_CONDITIONS: antagonism of MDL29,951 (~EC80) induced Ca2+ signal; cell line (HEK-293 hGPR17 or HEK-293 Suchi5 hGPR17) not given
MEASUREMENT_KIND: IC50

{"columns": ["COMPOUND", "MEASURED_TARGET", "MEASUREMENT_KIND", "RESULT"],
 "data": [
  ["O=S(=O)(Nc1cc(F)c(OC(F)F)cc1F)c1c[nH]cc1Cc1ccc(F)cc1 [Cpd 485]", "human GPR17 receptor (Homo sapiens)", "IC50", "0.5 to 5 µM"],
  ["O=S(=O)(Nc1cc(F)c(C(F)(F)F)cc1F)c1c[nH]c(-c2cscn2)c1 [Cpd 302]", "human GPR17 receptor (Homo sapiens)", "IC50", "< 0.5 µM"],
  ["Cc1c(C(F)(F)F)ccc(NS(=O)(=O)c2c[nH]c(-c3ccccn3)c2)c1F [Cpd 383]", "human GPR17 receptor (Homo sapiens)", "IC50", "5 to 50 µM"]
]}

Your task in this section: give IC50 for each listed record.
1. N#Cc1ccc(NS(=O)(=O)c2c[nH]c(-c3ccccc3)c2)c(F)c1F [Cpd 317]
2. Cc1cccc(-c2c[nH]cc2S(=O)(=O)Nc2ccc(C#N)cc2F)c1 [Cpd 221]

## Output
["0.5 to 5 µM", "0.5 to 5 µM"]

====

# MEASURED_TARGET: human GPR17 receptor (Homo sapiens, UniProt Q13304)
# Sequence (Q13304 whole entry): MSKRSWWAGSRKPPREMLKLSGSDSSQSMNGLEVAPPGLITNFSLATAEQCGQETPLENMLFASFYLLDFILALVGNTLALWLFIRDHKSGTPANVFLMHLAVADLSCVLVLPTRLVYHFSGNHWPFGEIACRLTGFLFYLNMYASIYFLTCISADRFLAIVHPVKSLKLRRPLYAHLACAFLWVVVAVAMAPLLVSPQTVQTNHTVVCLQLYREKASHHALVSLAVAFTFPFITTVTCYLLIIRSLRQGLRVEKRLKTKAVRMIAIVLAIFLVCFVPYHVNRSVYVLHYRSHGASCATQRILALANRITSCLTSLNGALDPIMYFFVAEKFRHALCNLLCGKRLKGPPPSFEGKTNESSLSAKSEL
# ASSAY: Calcium mobilization functional assay (Fluo-8, FLIPR TETRA) in HEK-293 hGPR17 (Gα-q assay)
# ASSAY_CONDITIONS: antagonism of MDL29,951 (~EC80) induced Ca2+ signal; cell line (HEK-293 hGPR17 or HEK-293 Suchi5 hGPR17) not given
pIC50: −log10 of the molar value.
Assign pIC50 to each entry below.

Record excerpt, results attached:
{"columns": ["INPUT_SMILES", "pIC50"],
 "data": [
  ["N#Cc1ccc(NS(=O)(=O)c2c[nH]c(-c3cccnc3F)c2)c(F)c1", "5.30 to 6.30"],
  ["O=S(=O)(Nc1cc(F)c(C(F)(F)F)cc1F)c1c[nH]c(-c2cccc(Cl)c2)c1", "5.30 to 6.30"],
  ["O=S(=O)(Nc1cc(F)c(C(F)(F)F)cc1F)c1c[nH]c(-c2ncccc2Cl)c1", "> 6.30"]
]}

Hello, I would appreciate it if you could give pIC50 for each entry below.
1. N#Cc1cc(F)c(NS(=O)(=O)c2c[nH]cc2Cc2ccccc2)cc1Cl
2. O=S(=O)(Nc1cc(F)c(Br)cc1F)c1c[nH]cc1Cc1cccs1

## Output
1: > 6.30; 2: 5.30 to 6.30

====

Would you mind telling me the reported IC50 of each entry?
# MEASURED_TARGET: human GPR17 receptor (Homo sapiens, UniProt Q13304)
# ASSAY: Calcium mobilization functional assay (Fluo-8, FLIPR TETRA) in HEK-293 hGPR17 (Gα-q assay)
# ASSAY_CONDITIONS: antagonism of MDL29,951 (~EC80) induced Ca2+ signal; cell line (HEK-293 hGPR17 or HEK-293 Suchi5 hGPR17) not given
# Protocol: HEK-293 cells stably expressing the human GPR17 receptor (HEK-293 hGPR17) developed by Axxam (Bresso, Milan, Italy) were cultured at 37° C. in a humidified atmosphere of 5% CO2. Cells were grown in EMEM supplemented with FBS (10%), Penicillin/Streptomycin (1%), Ultraglutamine I (2 mM), puromycin (0.6 μg/mL), G418 (0.4 mg/mL), zeocin (50 μg/mL). […] Elevated intracellular calcium levels can then be measured with calcium-sensitive fluorescent dyes (e.g., Fluo 8-No Wash Dye). […]

// worked examples, IC50 included
{"columns": ["INPUT_SMILES", "RESULT"],
 "data": [
  ["Cc1ccc(-c2cc(S(=O)(=O)Nc3cc(F)c(C(F)(F)F)cc3F)c[nH]2)cc1", "5 to 50 µM"],
  ["N#Cc1ccc(NS(=O)(=O)c2c[nH]c(-c3ccncc3)c2)c(F)c1", "5 to 50 µM"],
  ["O=S(=O)(Nc1cc(F)c(C(F)(F)F)cc1F)c1c[nH]c(-c2ncccn2)c1", "0.5 to 5 µM"]
]}

# return IC50 for each item in the list
1. N#Cc1ccc(NS(=O)(=O)c2c[nH]c(-c3cc(Cl)cs3)c2)c(F)c1
2. N#Cc1cc(F)c(NS(=O)(=O)c2c[nH]c(-c3cc(Cl)ccc3F)c2)cc1Cl

## Output
1: < 0.5 µM; 2: < 0.5 µM
